Tested on: DU-145
Counter-ions that a name gives are not always drawn.
READOUT: GI50 (µg/mL)
Provide only the numeric value, understood in µg/mL.

COc1cc(C(=O)C2=Cc3ccc(OP(=O)(O)O)c(OP(=O)(O)O)c3OC2)cc(OC)c1OC	2.2
COc1cc(C(=O)C2=Cc3ccc(OC)c(OC)c3OC2)cc(OC)c1OC	0.16
COc1cc(OC)c2c(c1)OCC(C(=O)c1cc(OC)c(OC)c(OC)c1)=C2	0.24
COc1cc(C(=O)C2=Cc3ccc(O)c(O)c3OC2)cc(OC)c1OC	0.23
COc1cc2c(cc1OC)OCC(C(=O)c1cc(OC)c(OC)c(OC)c1)=C2	0.42

Result for COc1cc(C(=O)C2=Cc3cccc(O)c3OC2)cc(OC)c1OC , tested on DU-145, GI50: 0.026

DU-145 assay, compound COc1cc(C(=O)C2=Cc3cccc(OP(=O)(O)O)c3OC2)cc(OC)c1OC [Compound 16, disodium salt] , recorded GI50 = 0.046

Entry COc1cc2c(cc1O)C=C(C(=O)c1cc(OC)c(OC)c(OC)c1)CO2 ; assay system DU-145; GI50 recorded at 3.9

Cited source: patent US7456214B2
